- assayed-target: human MMP-12 (Homo sapiens, UniProt P39900)
- Sequence (P39900 106-470): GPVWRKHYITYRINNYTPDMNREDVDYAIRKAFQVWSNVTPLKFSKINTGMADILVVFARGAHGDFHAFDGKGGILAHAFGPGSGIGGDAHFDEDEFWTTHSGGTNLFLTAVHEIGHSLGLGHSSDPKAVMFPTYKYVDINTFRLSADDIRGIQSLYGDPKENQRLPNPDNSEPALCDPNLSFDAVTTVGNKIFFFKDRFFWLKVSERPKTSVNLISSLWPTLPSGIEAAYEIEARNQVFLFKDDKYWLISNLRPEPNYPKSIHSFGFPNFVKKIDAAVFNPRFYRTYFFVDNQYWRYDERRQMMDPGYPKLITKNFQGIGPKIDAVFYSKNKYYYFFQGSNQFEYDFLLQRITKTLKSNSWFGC
- test-method-notes: in vitro binding
- Assay type: biochemical
- particulars: read-out: Ki (nM)/hMMP12; 50 mM Tris/HCl buffer, pH 6.8, 10 mM CaCl2, 25 °C; mean ± SD of three experiments
readout: Ki (nM)
Record the value in nM, omitting the unit from your answer.

Q. Look at this compound and give its reported Ki. NC(=O)[C@H](CCC(=O)O)NC(=O)[C@H](CCC(=O)O)NC(=O)[C@H](Cc1cc(-c2ccc(-c3cccc(Cl)c3)cc2)no1)CP(=O)(O)c1ccc(Br)cc1 [RXP470.1, reference compound]
A. 0.26
